The reported measurements were obtained from PubChem BioAssay AID330.

- Tested on: P388 leukemia ip, CD2F1 mice, survival T/C
- MEASUREMENT_DESCRIPTION: NCI In Vivo Anticancer Drug Screen. Data for tumor model P388 Leukemia (intraperitoneal) in CD2F1 (CDF1) mice
- CONDITION_NOTES: endpoint: median survival time; dose: 100.0 mg/kg/injection; schedule: Q04DX002 (ip); vehicle: Klucel (hydroxypropylcellulose) (HPC); higher = longer survival
- Procedure: The antitumor activity of compounds was measured in mice bearing transplantable tumors. Survival or tumor size were measured and the results are expressed as the measurement made in the treated group (T) divided by the measurement made in the vehicle treated control group (C). The tumor model used in this assay is P388 Leukemia (intraperitoneal) in CD2F1 (CDF1) mice
Toxic doses and inconclusive results are not listed.
Listed next: entries and their corresponding T/C.

{"columns": ["MOLECULE", "T/C"],
 "data": [
  ["Cc1ccc(N=Nc2c(-c3ccccc3)nn(C(=S)S)c2C)cc1", "105 % of control"],
  ["CNS(=O)Nc1ccnc(=O)[nH]1 (stereo not given)", "100 % of control"],
  ["COc1ccc(C(=O)Cc2ccccc2C#N)cc1", "100 % of control"],
  ["CCN(Cc1cc(Nc2ccnc3cc(Cl)ccc23)ccc1O)C(=O)N1CCN(C)CC1", "100 % of control"]
]}

Moving on to the next molecule.
Reported T/C for CC(C)(C)SC(=O)CC1(O)CCCCC1 was 100 % of control
